Recorded values, source patent US20220177587A1.

Collected Fold change to WT CD80 values appear next to each entry.
biological target: human CTLA-4 (human) (UniProt P16410); assay: flow cytometry, CHO cells expressing CTLA4
Sequence (P16410 36-223): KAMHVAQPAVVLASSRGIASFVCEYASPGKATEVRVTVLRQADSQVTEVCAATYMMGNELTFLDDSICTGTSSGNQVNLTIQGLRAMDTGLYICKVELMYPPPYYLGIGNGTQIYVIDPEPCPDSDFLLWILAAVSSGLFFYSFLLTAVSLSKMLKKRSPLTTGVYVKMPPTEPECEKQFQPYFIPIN
// return numeric value only (unit: fold, not printed)

Consider the reported Fold change to WT CD80 for these binders:
CD80 E35D/T41S/D46E/M47I/V68M/K93R/E95V IgV-Fc (Fc fusion) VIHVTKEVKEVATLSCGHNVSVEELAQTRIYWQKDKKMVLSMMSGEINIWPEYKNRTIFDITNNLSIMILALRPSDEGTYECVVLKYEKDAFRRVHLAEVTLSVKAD	10.5
CD80 H18Y/E35D/M47V/V68M/L85M IgV-Fc (Fc fusion) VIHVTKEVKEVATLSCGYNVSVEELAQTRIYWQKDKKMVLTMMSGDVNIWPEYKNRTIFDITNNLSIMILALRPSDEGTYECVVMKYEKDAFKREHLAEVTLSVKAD	10.5
CD80 E35D/M47V/N48K/V68M/L85M IgV-Fc (Fc fusion) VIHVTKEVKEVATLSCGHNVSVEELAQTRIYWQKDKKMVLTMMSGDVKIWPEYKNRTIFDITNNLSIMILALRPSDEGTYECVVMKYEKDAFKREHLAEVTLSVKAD	8.9

Then this binder:
For the binder CD80 T13R/Q33R/E35D/M47L/V68M/L85M IgV-Fc (Fc fusion) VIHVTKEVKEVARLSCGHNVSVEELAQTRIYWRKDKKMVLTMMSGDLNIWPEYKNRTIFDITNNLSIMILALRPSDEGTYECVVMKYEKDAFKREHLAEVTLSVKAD , what Fold change to WT CD80 is on record?
7.7
